- Conditions Used: siRNA; also: test system not given here
HELM strings list units from the 5' end as sugar, base in round brackets, then linkage (d deoxyribose, r ribose, m 2'-O-methyl, p phosphodiester). Strings are as the collection lists them, not checked against the first reports. ss, as = sense and antisense strand; [lna] = locked nucleic acid (LNA); [una] = unlocked nucleic acid
Provide the recorded target mRNA knockdown for the entries that follow.

RNA1{m(C)p.r(C)p.m(G)p.r(A)p.m(A)p.r(G)p.m(A)p.r(C)p.m(G)p.r(A)p.m(A)p.r(G)p.m(C)p.r(U)p.m(A)p.r(U)p.m(G)p.r(A)p.m(A)p.r(T)p.r(T)}|RNA2{r(U)p.r(U)p.r(C)p.r(A)p.r(U)p.r(A)p.m(G)p.r(C)p.r(U)p.r(U)p.r(C)p.m(G)p.r(U)p.r(C)p.r(U)p.r(U)p.r(C)p.m(G)p.m(G)p.r(T)p.r(T)}$$$RNA1{StrandType:ss}|RNA2{StrandType:as}$
51%
RNA1{m(A)p.r(U)p.m(A)p.r(C)p.m(U)p.r(U)p.m(G)p.r(G)p.m(C)p.r(G)p.m(G)p.r(G)p.m(C)p.r(U)p.m(C)p.r(U)p.m(U)p.r(U)p.m(C)p.r(T)p.r(T)}|RNA2{m(G)p.r(A)p.r(A)p.r(A)p.m(G)p.r(A)p.m(G)p.r(C)p.r(C)p.r(C)p.m(G)p.r(C)p.r(C)p.r(A)p.r(A)p.m(G)p.r(U)p.r(A)p.r(U)p.r(T)p.r(T)}$$$RNA1{StrandType:ss}|RNA2{StrandType:as}$
25%
RNA1{r(C)p.r(U)p.r(U)p.r(A)p.r(C)p.r(G)p.r(C)p.r(U)p.r(G)p.r(A)p.r(G)p.r(U)p.r(A)p.r(C)p.r(U)p.r(U)p.r(C)p.r(G)p.r(A)p.r(T)p.r(T)}|RNA2{r(U)p.r(C)p.r(G)p.r(A)p.r(A)p.r(G)p.r(U)p.r(A)p.r(C)p.r(U)p.r(C)p.r(A)p.r(G)p.[lna](C)p.r(G)p.r(U)p.r(A)p.r(A)p.r(G)p.r(T)p.r(T)}$$$RNA1{StrandType:ss}|RNA2{StrandType:as}$
43%
RNA1{r(A)p.r(G)p.r(C)p.m(C)p.r(A)p.r(C)p.r(A)p.r(U)p.r(U)p.r(U)p.r(C)p.r(U)p.m(A)p.r(G)p.r(G)p.r(A)p.r(G)p.r(A)p.r(U)p.r(T)p.r(T)}|RNA2{r(A)p.r(U)p.r(C)p.r(U)p.r(C)p.r(C)p.r(U)p.r(A)p.r(G)p.r(A)p.r(A)p.r(A)p.m(U)p.r(G)p.r(U)p.r(G)p.r(G)p.r(C)p.r(U)p.r(T)p.r(T)}$$$RNA1{StrandType:ss}|RNA2{StrandType:as}$
29%

API: the following record is the query input.
Exercise: // returns reported target mRNA knockdown for input RNA1{r(G)p.r(G)p.r(A)p.r(C)p.r(A)p.r(U)p.r(U)p.r(C)p.r(A)p.r(G)p.r(A)p.r(A)p.r(C)p.r(A)p.r(A)p.r(G)p.r(A)p.r(A)p.r(A)p.[una](U)p.[una](U)}|RNA2{r(U)p.r(U)p.r(U)p.r(C)p.[una](U)p.r(U)p.r(G)p.r(U)p.r(U)p.r(C)p.r(U)p.r(G)p.r(A)p.r(A)p.r(U)p.r(G)p.r(U)p.r(C)p.r(C)p.[una](U)p.[una](U)}$$$RNA1{StrandType:ss}|RNA2{StrandType:as}$
Solution: 37%
